# pIC50 annotations
- ASSAY TARGET: CypH (Homo sapiens, UniProt O43447)
- Construct: PPIH (UniProtKB Entry O43447: residues 1–177); His6 with TEV site (2BT vector leader) (N); made in house; host or cells: E. coli BL21(DE3)
- Sequence (O43447 whole entry, the tested form may be a part): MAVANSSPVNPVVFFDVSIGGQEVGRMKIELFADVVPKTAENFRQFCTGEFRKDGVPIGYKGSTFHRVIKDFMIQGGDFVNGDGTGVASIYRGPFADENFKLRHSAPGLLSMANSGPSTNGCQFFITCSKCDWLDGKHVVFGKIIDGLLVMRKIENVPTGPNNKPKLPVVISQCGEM
- ASSAY COMMENT: Chymotrypsin coupled prolyl-isomerase assay
- Format: biochemical
- MEASUREMENT CONDITIONS: wild-type CypH; read-out: Wild-Type Cyclophilin Prolyl Isomerase Inhibition IC50 Values, CypH
pIC50: −log10 of the molar value.

Would you please look over these solved cases?
COMPOUND	pIC50
NCCOCCNC(=O)[C@@H]1CCNC(=O)/C=C/C(=O)N2CCC[C@](Cc3ccccc3)(C2)C(=O)N[C@@H](Cc2ccc(-c3ccc(/C=C/C(=O)O)cc3)cc2)C(=O)NCc2ccccc2CC(=O)N1 [Compound B24]	< 4.30
NCCOCCNC(=O)C1CCNC(=O)C=CC(=O)N2CCCC(C2)C(=O)NC(Cc2ccc(C(=O)c3ccccc3)cc2)C(=O)NCc2ccccc2CC(=O)N1 (stereo not shown) [Compound A14]	< 4.00
C[N+]1=C(C=CC=CC=C2N(CCCCCC(=O)NCCNC(=O)C3CCNC(=O)C=CC(=O)N4CCCC(Cc5ccccc5)(C4)C(=O)NC(Cc4ccc(-c5ccc(CC(C(=O)O)C(=O)O)cc5)cc4)C(=O)NCc4ccccc4CC(=O)N3)c3ccccc3C2(C)C)C(C)(C)c2ccccc21 (stereo not shown) [*B52-Cy5]	< 5.00

Please turn your attention to the following entry.
pIC50 reading for NCCOCCNC(=O)[C@@H]1CCNC(=O)/C=C/C(=O)N2CCC[C@](Cc3ccccc3)(C2)C(=O)N[C@@H](Cc2ccc(-c3ccc(CC(C(=O)O)C(=O)O)cc3)cc2)C(=O)NCc2ccccc2CC(=O)N1 [Compound B52] : < 4.00

----------
- ASSAY TARGET: CypD R124A (Homo sapiens, UniProt P30405, R124A)
- Construct: made in house; host or cells: E. coli BL21(DE3)
- Sequence (P30405 45-207 R124A): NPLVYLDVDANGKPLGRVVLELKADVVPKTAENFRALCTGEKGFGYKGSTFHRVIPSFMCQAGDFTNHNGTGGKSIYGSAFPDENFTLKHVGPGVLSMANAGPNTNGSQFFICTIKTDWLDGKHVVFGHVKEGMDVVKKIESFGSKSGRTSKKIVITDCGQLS
- ASSAY COMMENT: Chymotrypsin coupled prolyl-isomerase assay
- Assay type: biochemical
- MEASUREMENT CONDITIONS: mutant CypD R124A; read-out: Mutant Cyclophilin Prolyl Isomerase Inhibition IC50 Values, CypD R124A
READOUT: pIC50
Quick note: pIC50 values are minus log10 of concentrations in mol/L.

pIC50 reading for `NCCOCCNC(=O)[C@@H]1CCNC(=O)/C=C/C(=O)N2CCC[C@](Cc3ccccc3)(C2)C(=O)N[C@@H](Cc2ccc(-c3ccc(C(CC(=O)O)CC(=O)O)cc3)cc2)C(=O)NCc2ccccc2CC(=O)N1` : 7.49

pIC50 reading for `NCCOCCNC(=O)[C@@H]1CCNC(=O)/C=C/C(=O)N2CCC[C@](Cc3ccccc3)(C2)C(=O)N[C@@H](Cc2ccc(-c3ccc(C#CC(=O)O)cc3)cc2)C(=O)NCc2ccccc2CC(=O)N1` : 8.70

pIC50 reading for `NCCOCCNC(=O)[C@@H]1CCNC(=O)/C=C/C(=O)N2CCC[C@](Cc3ccccc3)(C2)C(=O)N[C@@H](Cc2ccc(-c3ccc(CCC(=O)O)cc3)cc2)C(=O)NCc2ccccc2CC(=O)N1` : 8.52

pIC50 reading for `NCCOCCNC(=O)[C@@H]1CCNC(=O)/C=C/C(=O)N2CCC[C@](Cc3ccccc3)(C2)C(=O)N[C@@H](Cc2ccc(-c3ccc(CC(C(=O)O)C(=O)O)cc3)cc2)C(=O)NCc2ccccc2CC(=O)N1` : 7.77

----------
- ASSAY TARGET: CypC (Homo sapiens, UniProt P45877)
- Construct: PPIC (UniProtKB Entry P45877: residues 24–212); host or cells: E. coli BL21(DE3)
- Sequence (P45877 24-212): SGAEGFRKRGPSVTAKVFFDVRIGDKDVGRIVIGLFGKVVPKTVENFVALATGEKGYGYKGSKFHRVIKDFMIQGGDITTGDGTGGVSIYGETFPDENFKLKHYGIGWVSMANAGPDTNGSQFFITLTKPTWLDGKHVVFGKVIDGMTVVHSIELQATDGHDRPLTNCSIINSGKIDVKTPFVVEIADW
- ASSAY COMMENT: Chymotrypsin coupled prolyl-isomerase assay
- Assay type: biochemical
- MEASUREMENT CONDITIONS: wild-type CypC; read-out: Wild-Type Cyclophilin Prolyl Isomerase Inhibition IC50 Values, CypC
# pIC50 annotations
Quick note: pIC50 values are minus log10 of concentrations in mol/L.

MOLECULE	ASSAY TARGET	pIC50
NCCOCCNC(=O)[C@@H]1CCNC(=O)/C=C/C(=O)N2CCC[C@](Cc3ccccc3)(C2)C(=O)N[C@@H](Cc2ccc(-c3ccc(CCC(=O)O)cc3)cc2)C(=O)NCc2ccccc2CC(=O)N1	CypC (Homo sapiens, UniProt P45877)	5.30
NCCOCCNC(=O)C1CCNC(=O)C=CC(=O)N2CCCC(Cc3ccccc3)(C2)C(=O)NC(Cc2ccco2)C(=O)NCc2ccccc2CC(=O)N1 (stereo not drawn)	CypC (Homo sapiens, UniProt P45877)	6.28
NCCCc1ccc(-c2ccc(C[C@@H]3NC(=O)[C@]4(Cc5ccccc5)CCCN(C4)C(=O)/C=C/C(=O)NCC[C@@H](C(=O)NCCOCCN)NC(=O)Cc4ccccc4CNC3=O)cc2)cc1	CypC (Homo sapiens, UniProt P45877)	5.92
NCCOCCNC(=O)[C@@H]1CCNC(=O)/C=C/C(=O)N2CCC[C@](Cc3ccccc3)(C2)C(=O)N[C@@H](Cc2ccc(-c3ccc(/C=C/C(=O)O)cc3)cc2)C(=O)NCc2ccccc2CC(=O)N1	CypC (Homo sapiens, UniProt P45877)	5.82
CC12CCCN(C1)C(=O)C=CC(=O)NCCC(C(=O)NCCOCCN)NC(=O)Cc1ccccc1CNC(=O)C(Cc1ccco1)NC2=O (stereo not drawn)	CypC (Homo sapiens, UniProt P45877)	5.19

pIC50 reading for NCCOCCNC(=O)C1CCNC(=O)C=CC(=O)N2CCCC(C2)C(=O)NC(Cc2ccco2)C(=O)NCc2ccccc2CC(=O)N1 (stereo not drawn) : 4.64

----------
- ASSAY TARGET: CypB (Homo sapiens)
- Construct: PPIB (UniProtKB Entry P23284: residues 34–216); His6 with TEV site (2BT vector leader) (N); made in house; host or cells: E. coli BL21(DE3)
- Sequence (P23284 34-216): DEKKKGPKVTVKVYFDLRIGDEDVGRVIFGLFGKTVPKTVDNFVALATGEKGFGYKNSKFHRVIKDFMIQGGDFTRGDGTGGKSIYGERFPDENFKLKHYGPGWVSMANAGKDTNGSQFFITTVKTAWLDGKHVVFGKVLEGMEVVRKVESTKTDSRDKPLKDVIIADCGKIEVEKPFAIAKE
- ASSAY COMMENT: biochemical
- MEASUREMENT CONDITIONS: wild-type CypB; read-out: Wild-Type Cyclophilin Prolyl Isomerase Inhibition IC50 Values, CypB
- Description: Adapting a previously described protocol, with an Agilent Bravo Velocity 11 with a 384ST head, 90 µL assay buffer (25 mM HEPES pH 7.3, 100 mM NaCl, 0.01% Triton X-100) containing 5.28 nM cyclophilin was added into a flat, clear-bottom, black 384-well plate pre-chilled in a Corning CoolBox at 2–3 °C. […] Raw fluorescence data was analyzed by non-linear regression analysis with Prism v.9 by fitting one-phase association curves to each well. […]
READOUT: pIC50
Quick note: pIC50 values are minus log10 of concentrations in mol/L.

Would you please look over these solved cases?
COMPOUND	pIC50
NCCOCCNC(=O)[C@@H]1CCNC(=O)/C=C/C(=O)N2CCC[C@](Cc3ccccc3)(C2)C(=O)N[C@@H](Cc2ccc(-c3ccc(C(=O)O)cc3)cc2)C(=O)NCc2ccccc2CC(=O)N1	5.70
NCCOCCNC(=O)C1CCNC(=O)C=CC(=O)N2CCCC(Cc3ccccc3)(C2)C(=O)NC(Cc2ccco2)C(=O)NCc2ccccc2CC(=O)N1 (stereo not shown)	7.00
CC(=O)c1ccc(-c2ccc(C[C@@H]3NC(=O)[C@]4(Cc5ccccc5)CCCN(C4)C(=O)/C=C/C(=O)NCC[C@@H](C(=O)NCCOCCN)NC(=O)Cc4ccccc4CNC3=O)cc2)cc1	7.10
NC(=O)C1CCNC(=O)C=CC(=O)N2CCCC(Cc3ccccc3)(C2)C(=O)NC(Cc2ccc(-c3ccc(C=O)c(B(O)O)c3)cc2)C(=O)NCc2ccccc2CC(=O)N1 (stereo not shown)	5.40
NCCOCCNC(=O)[C@@H]1CCNC(=O)/C=C/C(=O)N2CCC[C@](Cc3ccccc3)(C2)C(=O)N[C@@H](Cc2ccc(-c3ccc(CCC(=O)O)cc3)cc2)C(=O)NCc2ccccc2CC(=O)N1	7.66
CC12CCCN(C1)C(=O)C=CC(=O)NCCC(C(=O)NCCOCCN)NC(=O)Cc1ccccc1CNC(=O)C(Cc1ccco1)NC2=O (stereo not shown)	6.05
NCCOCCNC(=O)[C@@H]1CCNC(=O)/C=C/C(=O)N2CCC[C@](Cc3ccccc3)(C2)C(=O)N[C@@H](Cc2ccc(-c3ccc(/C=C/C(=O)O)cc3)cc2)C(=O)NCc2ccccc2CC(=O)N1	8.30
NC(=O)[C@@H]1CCNC(=O)/C=C/C(=O)N2CCC[C@](Cc3ccccc3)(C2)C(=O)N[C@@H](Cc2ccc(-c3cccc(B(O)O)c3)cc2)C(=O)NCc2ccccc2CC(=O)N1	5.10

Please turn your attention to the following entry.
pIC50 reading for NCCOCCNC(=O)C1CCNC(=O)C=CC(=O)N2CCCC(C2)C(=O)NC(Cc2ccco2)C(=O)NCc2ccccc2CC(=O)N1 (stereo not shown) : 5.30

----------
# IC50 annotations
- ASSAY TARGET: CypD (Homo sapiens, UniProt P30405)
- Sequence (P30405 45-207): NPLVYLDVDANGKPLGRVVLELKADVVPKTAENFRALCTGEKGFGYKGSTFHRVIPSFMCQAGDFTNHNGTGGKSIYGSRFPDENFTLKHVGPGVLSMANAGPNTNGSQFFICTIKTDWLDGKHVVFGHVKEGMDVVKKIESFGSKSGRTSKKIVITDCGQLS
- ASSAY COMMENT: Chymotrypsin coupled prolyl-isomerase assay
- MEASUREMENT CONDITIONS: read-out: IC50 CypD; prolyl-isomerase inhibition, 5 nM cyclophilin, Suc-AAPF-AMC; mean±s.e.m. of 3 technical replicates (B52, B53, C3A wild-type: mean±s.d. of 4 independent replicates)

Would you please look over these solved cases?
COMPOUND	RESULT VALUE
NCCOCCNC(=O)[C@@H]1CCNC(=O)/C=C/C(=O)N2CCC[C@](Cc3ccccc3)(C2)C(=O)N[C@@H](Cc2ccc(-c3ccc(/C=C/C(=O)O)cc3)cc2)C(=O)NCc2ccccc2CC(=O)N1	1.9 nM
CC(=O)c1ccc(-c2ccc(C[C@@H]3NC(=O)[C@]4(Cc5ccccc5)CCCN(C4)C(=O)/C=C/C(=O)NCC[C@@H](C(=O)NCCOCCN)NC(=O)Cc4ccccc4CNC3=O)cc2)cc1	38 nM

# value of IC50, CypD (Homo sapiens, UniProt P30405), item CC(=O)NCCNC(=O)CCCCCN1\C(=C/C=C/C=C/C2=[N+](C)c3ccccc3C2(C)C)C(C)(C)c2ccccc21 [Cy5-enAc, reference compound] = > 2000 nM
